Here the recorded melting point is given for each entry.

O=C1N=C(N2CCOCC2)SC1=Cc1cccc(-c2cc(F)c(O)c(C34CC5CC(CC(C5)C3)C4)c2)c1: 293 to 295 °C
COc1cc(OC)c(-c2cc3ccccc3s2)cc1/C=C/C(=O)c1ccc(C(=O)NC(C)=O)cc1: 228 to 229 °C
O=C(O)c1ccc(-c2c[nH]c(=O)cn2)cc1: > 300 °C

With those in mind, consider the next compound.
*Q* Hello, please tell me recorded melting point for this one: N#Cc1c(N2CCCC2)cc(-c2ccccc2)c2c1-c1ccccc1C2
*A* 158 to 160 °C

----------
metric: melting point

CC(C)Cn1nc(-c2ccc(C(F)(F)F)cc2)cc(CO)c1=O: 146 °C
O=c1c2c(c3cccnc3n1-c1ccccc1)OCCC2: 253 to 255 °C
CCOC(=O)Cc1ccc(NC(=O)C(COc2ccc(Cl)cc2)NS(=O)(=O)c2ccc(Br)cc2)cc1 (racemic): 154 to 156 °C
Cc1cc(N2N=CCNC2=O)cc(Cl)c1C(C#N)c1ccc(Cl)nc1 (stereo not given): 211 to 212 °C

With those in mind, consider the next compound.
*Q* Hello, please tell me recorded melting point for this one: O=C(NCCO)/C(=C/c1ccc(OC(F)(F)F)cc1)NC(=O)c1ccc(Oc2ccc(Cl)cc2)cc1
*A* 77 to 82 °C
